Target: human γδ TCR (Vγ9Vδ2) on human Vδ2+ γδ T cells (human) (UniProt A0JD36)
Assay: flow cytometry, monomeric VHH-hIgG1 Fc fusion on expanded human Vδ2+ γδ T cells, anti-human Fc A647, MFI
Measurement Kind: EC50 (read off the curve) (nM)

Some entries whose results are on file:
Binder	Value Unit	Experimental Result
hu1D7v3 VHH-hIgG1 Fc-NNT (monomeric) (VHH) VHH: EVQLLESGGGEVQPGGSLRLSCVASGGKISQYRMGWYRQAPGKGLEWVAHISNTGDAAEYVDSVKGRFTISRDSTKNAVYLQMSSLRAEDTAVYKCNSVEDILAWGQGTLVTVKP	nM	20
hu1D7v99 VHH-hIgG1 Fc-NNT (monomeric) (VHH) VHH: EVQLLESGGGEVQPGGSLRLSCVASRGKISQYRMGWYRQAPGKERELVAHISNTGDAAEYVSSVKDRFTISRDSTKNALYLQMSSLRAEDTAVYKCNSVEDILAWGQGTLVTVRP	nM	60
hu1D7v85 VHH-hIgG1 Fc-NNT (monomeric) (VHH) VHH: EVQLLESGGGEVQPGGSLRLSCVASRGKISQYRMGWYRQAPGKERELVAHISNTGDAAEYVSGVKDRFTISRDSTKNALYLQMSSLRAEDTAVYKCNSVEDILAWGQGTLVTVRP	nM	70
hu1D7v86 VHH-hIgG1 Fc-NNT (monomeric) (VHH) VHH: EVQLLESGGGEVQPGGSLRLSCVASRGKISQYRMGWYRQAPGKERELVAHISNTGDAAEYVGGVKDRFTISRDSTKNALYLQMSSLRAEDTAVYKCNSVEDILAWGQGTLVTVRP	nM	60

[I] hu1D7v5 VHH-hIgG1 Fc-NNT (monomeric) (VHH) VHH: EVQLLESGGGEVQPGGSLRLSCVASRGTISQYRMGWYRQAPGKGLEWVAHISNTGDAAEYVDSVKGRFTISRDSTKNAVYLQMSSLRAEDTAVYKCNSVEDILAWGQGTLVTVKP
[II] hu1D7v158 VHH-hIgG1 Fc-NNT (monomeric) (VHH) VHH: EVQLLESGGGEVQPGGSLRLSCVASRGKISQYRMGWYRQAPGKQRELVAHISNTGDAAEYVAPVKGRFTISRDNAKNALYLQMNSLRAEDTAVYKCNTVEDILAWGQGTLVTVEP
### Prompt Of the pair I and II , name the member with the lesser recorded EC50 (read off the curve). Identify your pick by its label.
### Response II
